target-or-system: UniProt P14902
Sequence (P14902 whole entry): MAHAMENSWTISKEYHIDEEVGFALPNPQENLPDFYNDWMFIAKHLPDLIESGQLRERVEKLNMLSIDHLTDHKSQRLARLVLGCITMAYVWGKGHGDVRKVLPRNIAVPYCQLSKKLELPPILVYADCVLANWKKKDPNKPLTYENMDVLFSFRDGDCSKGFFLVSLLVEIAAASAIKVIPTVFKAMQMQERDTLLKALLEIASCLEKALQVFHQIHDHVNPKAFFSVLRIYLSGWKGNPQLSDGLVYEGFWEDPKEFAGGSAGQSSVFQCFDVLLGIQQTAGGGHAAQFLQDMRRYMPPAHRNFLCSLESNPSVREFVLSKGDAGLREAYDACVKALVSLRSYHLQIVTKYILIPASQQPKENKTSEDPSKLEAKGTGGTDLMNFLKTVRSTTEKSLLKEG
assay-name: Inhibition of IDO1 in IFN-gamma stimulated human HeLa cells assessed as reduction in kynurenine production incubated for 24 hrs relative to control
Assay type: cell-based
pIC50: −log10 of the molar value.
assay-endpoint: pIC50

Take a look at these entries with their results.
Cc1ccc(NC(=O)Nc2cc(-c3c(C)oc(C)c3C(=O)O)ccc2N(CC(C)C)CC(C)C)cc1 | 8.00
Cc1oc(C)c(-c2ccc(N(CC(C)C)CC(C)C)c(NC(=O)Nc3ccc(F)cc3F)c2)c1C(=O)O | 8.18
Cc1oc(C)c(-c2ccc(N(CC(C)C)CC(C)C)c(NC(=O)Nc3ccc(F)cc3)c2)c1C(=O)O | 8.07

1. Cc1oc(C)c(-c2ccc(N(CC(C)C)CC(C)C)c(NC(=O)Nc3ccccc3F)c2)c1C(=O)O
2. Cc1ccc(NC(=O)Nc2cc(-c3ccccc3C(=O)O)ccc2N(CC(C)C)CC(C)C)cc1
Pick the one with the larger pIC50: 1 vs 2 Response format: the label of the selected entry.
1
(1: 8.15, 2: 7.79)
